assay: soluble on expression in E. coli; label from the status in PepcDB or PDB records
test_readout: soluble on expression in E. coli

query_sequence	test_readout	assay_result
MGFKRLLASLGAGGASVETVLTEVNVVPGGVVQGEVRIQGGSVNQAIEGLSVGLQAKVEVEGHDDQEYKQDIEFAKLSLGGAFELQAGAVHAVPFGLEIPWETPITMIDGQALRGMNIGVTTELEIARAVDSGDLDPVNVHPLPAQKAILDAFVQLGFRFKNADMERGHIRGTRQRLPFYQEIEFFPPSQYRGLNQVELSFVADDREMDVILEMDKKPGLFSEGSDSYRSFQVGLNDFQGTDWTAYLHQWLSEVGSKRSWF	soluble on expression in E. coli	not soluble
MVHRLDISSEMIAFFKNCAKNGNYTPFLSNYRGLIRDIGQQLEKVSLPNNSLEKLMVKHFANCFVALHTMNSLDELAASAPKFVADFKQAIGNKKTLKELHDNFKSSDTKQQGLNRKLTNKMERNRSEMKQFKMEMMSSFNGLKQNMDTKMEEMMQLMRALIQDLTSQKLAQNPESSKCSFPNYGLEIQKKFEDMIQNMKSQTGSVFELKLKEIEQLEAEAENTIPKIPKKAAGSSSEH	soluble on expression in E. coli	not soluble

* * *

test: soluble on expression in E. coli; label from the status in PepcDB or PDB records
test_readout: soluble on expression in E. coli

query_sequence	assay_result
MEVRGMDTIGHHYIVEAAGCDPNVIGDANKIREIFLEAAKRGNMEVKASYFFKFSPMGVSGVVIVAESHISVHTWPEKGYAALDVYTCGENADPEKAVDYILEQFKAQYAHVSEIKRGIEEEDRTFTHTILTWEERLDRRNGKP	soluble
MAHHHHHHMGGQSSVTTTPEQIPVNGKSLDWGPPPDDIPEEERDNEELVLQTWAFCKAKPSPAQNYRSDVEERKRRQSMLWRKRASFIELDCGEDSFFVSNTYKVIGVADGVGGWRDEGVDASHFANSLMENAKHFSETHRKELNPEVILQSAFDKVLHDKVVKAGSSTACVVALQKDSSGEHYLDVANVGDSGVLVVRNRQVQHRVHEKVHGFNAPFQLAVLPPHLQGRAFSDRVSDATREKIPVQRGDVVITGTDGLFDNRFNISLAADAGWIGHVQGSALERVPLVGLLLGPIFANDKVAYVDPQRVAQRIVQDAYKTSLDESAHTPWASMLRKFGVEDAKGGKVDDITLVLSRVTTREELNATSTW	not soluble
MSDVPDDANAGCPGTGSAGAGKASGCAGCPNQGSCATGQGPPPDADVPKIQDRFSRIKHKILILSGKGGVGKSTLTSNLARALASDPSKQVAILDVDICGPSQPRMMGVEDEEVHNSADGWTPVGIQPNLTLMSIAFLLGDKNDAVIWRGARKNGMIKQFLKDVDWGEVDYLLIDTPPGTSDEHISLVQFLLQAGPLDGALIVSTPQEVSLLDVRKEVSFCVKTKVPILGVVENMARFVCPNCAHTTLLFPTSTGGAEQMCKDSNLELLAQLPLEPALAKALDNGEDFFETNPDSTLAKSFLDLAEKVKAKLV	not soluble
AHHHHHHGSKIATIVGARPQFIKMAPVSRELRKYFEEVVIHTGQHYDYEMDRIFFEQLNIPEPDYNLGVGSGSHGYQIGEMLKKIEEVLIKEKPDLVMVFGDTNSTLAGALAAAKLKIKVAHVEAGLRSFDKSMPEEINRILTDHVSDYLFAPTETAVKNLYNEGIRNGVYLTGDVMLDALLYNVKIAERCSEILNKLGLKPKEFCLATVHRAENTDNLERLKNIIDAFVECKETIVFPVHPRTEKVLKAYGLYDSLKKAENVILIKPVGYLDMLMLEKNAKKILTDSGGVQKEAYFLKVPCITLRERTEWVETVEDGWNVLVGADKEKILRAVREFEPSGETYTYKFGDGRASEKIAEVIKNVDR	not soluble
MGSDKIHHHHHHMQHIIKTALQQTFNYKTNKSIYNILVGKKSHQTFFDACSQQQLSLYHSLPLLKYPSFELFLEKINEFNAEMEIMLHPRYTFESMGQTFQAIQLLVQTMSNTKQHVFHFVPISQNNKIQETVKIVYNYIKENQLQIDFENELHNLFKAITLKGPCYLHYYLQGYDEPMYTRQQVSLIEKLSQQQLFEYEMNNLVTMMFELESGEYTILSKIIMKPTLLNQTYITYTKLLEQFTMEDIAAQQQVKINTIEDHVLEILIKGYMSNYDDYVELEDQLQFLNFYQQHRGERLKFYKEQFDTLSYFQLKVLIVGFERGDLNVA	not soluble
MFRMPIVTMERVDSFSAAHRLHSEKLSDAENKETFGKCNNSNGHGHNYVWKVKLRGEVDPTSGMVYDLAKLKKEMSLVLDTVDHRNLDKDVEFFKTTVSTSENVAIYMFEKLKSVMSNPSVLYKVTIEETPKNIFTYKGS	soluble
